Assignment: determine reported IC50 for the given molecules.
- System: A549 cell line
- Assay Explanation: Anti-proliferation assay in A549 cell line (CellTiter-Glo)
- Format: cell-based
- Conditions: Homo sapiens; A549 cells, 48 h, CTG assay
A number alone suffices; assume µM.

Given the entry Cc1ccc2c(c1CCC(O)C(C)(C)O)C(=O)C(=O)C(C(C)C)=C2 (stereo not shown) [Compound 17] , report its measured IC50. 12.8

Same lookup for CCS(=O)(=O)OCCCc1c(C)ccc2c1C(=O)C(=O)C(C(C)C)=C2 [Compound 24b] , please. 15.5

---

- Study Target: IDO1 (Homo sapiens)
- Construct: No. 20160706
- Assay Explanation: IDO1 enzymatic assay
- Assay type: biochemical
- Conditions: 10 μM; Table 1 natural products; read-out: IDO1 Inhibition @ 10 μM (%)
Classify by measured inhibition at 10 µM: MET if it is equal to or exceeds 60%, NOT MET if it is smaller.

Would you say Cc1cccc2c3c(ccc12)C(=O)C(C(C)C)=C(O)C3=O [Compound 12] shows inhibition at 10 µM at minimum 60%? NOT MET

Same lookup for Cc1ccc2c(c1C(=O)CCC(C)(C)O)C(=O)C(=O)C(C(C)C)=C2 [Compound 8] , please. MET

Same lookup for Cc1ccc2c(c1/C=C\C(=O)C(C)(C)O)C(=O)C(O)=C(C(C)C)C2=O [Compound 16] , please. NOT MET

Same lookup for Cc1ccc2c(c1CCCC(C)(C)O)C(=O)C(O)=C(C(C)C)C2=O [Compound 11] , please. NOT MET

Same lookup for CC(C)C1=C(O)C(=O)C23OC2(C(=O)CC2C(C)(C)CCCC23C)C1=O (stereo not drawn) [Compound 15] , please. NOT MET

Same lookup for Cc1ccc2c(c1CCC(=O)C(C)C)C(=O)C(=O)C(C(C)C)=C2 [Compound 7] , please. MET

Same lookup for CC(C)=CCCc1c(C)ccc2c1C(=O)C(=O)C(C(C)C)=C2 [Compound 1, saprorthoquinone] , please. MET

Same lookup for CC(C)=CCCc1c(C)ccc2c1C(=O)C(O)=C(C(C)C)C2=O [Compound 14] , please. NOT MET

---

- Study Target: IDO1 (Homo sapiens, UniProt P14902)
- Construct: No. 20160706
- Sequence (P14902 whole entry): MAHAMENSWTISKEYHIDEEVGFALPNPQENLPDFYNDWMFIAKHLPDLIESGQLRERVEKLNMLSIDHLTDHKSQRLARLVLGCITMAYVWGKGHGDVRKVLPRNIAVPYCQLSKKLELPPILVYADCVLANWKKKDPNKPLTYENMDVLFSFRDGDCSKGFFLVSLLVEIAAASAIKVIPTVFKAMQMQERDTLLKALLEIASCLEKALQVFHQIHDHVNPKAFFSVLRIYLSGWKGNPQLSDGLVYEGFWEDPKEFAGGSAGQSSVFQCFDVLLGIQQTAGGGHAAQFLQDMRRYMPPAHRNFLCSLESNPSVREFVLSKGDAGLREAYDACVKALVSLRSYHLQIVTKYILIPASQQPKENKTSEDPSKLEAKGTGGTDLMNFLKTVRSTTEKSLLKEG
- Assay Explanation: IDO1 enzymatic assay
- Format: biochemical
- Conditions: 10 μM; Tables 2 and 3; read-out: IDO1 % Inhibition at 10 μM (converted)
Measurement Label: inhibition at 10 µM (%)
A number alone suffices; assume %.

Given the entry Cc1ccc2c(c1CCCOS(C)(=O)=O)C(=O)C(=O)C(C(C)C)=C2 [Compound 24a] , report its measured inhibition at 10 µM. 91

Same lookup for Cc1ccc2c(c1CCC(=O)Nc1ccc(C(F)(F)F)cc1)C(=O)C(=O)C(C(C)C)=C2 [Compound 21c] , please. 64

Same lookup for Cc1ccc2c(c1CCC(=O)NCc1c[nH]c3ccccc13)C(=O)C(=O)C(C(C)C)=C2 [Compound 21f] , please. 79

Same lookup for Cc1ccc2c(c1CCC(=O)NCCCCC(=O)Nc1ccccc1N)C(=O)C(=O)C(C(C)C)=C2 [Compound 33c] , please. 90

Data provenance: paper PMC7582476
